System: LK-2
Experiment: relative viability (nuclei count vs DMSO), 5 days (fraction); higher = more cells survive
Settings: first compound 0.4 µM
Listing of recorded relative viability by entry.
// response body must contain only the number

{"molecule": "Clc1ccc(Nc2nnc(Cc3ccncc3)c3ccccc23)cc1 [Vatalanib] + COc1cc2c(Oc3ccc(NC(=O)C4(C(=O)Nc5ccc(F)cc5)CC4)cc3F)ccnc2cc1OCCCN1CCOCC1 [Foretinib] (partner 0.25 µM)", "relative viability": 1.29}
{"molecule": "COc1cc(N2CCC(C(N)=O)CC2)ccc1Nc1nc(N)c(Cl)c(Nc2ccccc2S(=O)(=O)C(C)C)n1 [HG-5-88-01] + O=C(c1cc(Cc2n[nH]c(=O)c3ccccc23)ccc1F)N1CCN(C(=O)C2CC2)CC1 [Olaparib] (partner 8 µM)", "relative viability": 0.718}
{"molecule": "Clc1ccc(Nc2nnc(Cc3ccncc3)c3ccccc23)cc1 [Vatalanib] + C[C@]1(O)C[C@@H](c2nc(-c3ccc4ccc(-c5ccccc5)nc4c3)c3c(N)nccn32)C1 [Linsitinib] (partner 1 µM)", "relative viability": 0.541}
{"molecule": "COc1cc(N2CCC(C(N)=O)CC2)ccc1Nc1nc(N)c(Cl)c(Nc2ccccc2S(=O)(=O)C(C)C)n1 [HG-5-88-01] + COc1cccc2cc(-c3nc([C@H]4CC[C@H](C(=O)O)CC4)n4ncnc(N)c34)[nH]c12 [OSI-027] (partner 0.5 µM)", "relative viability": 0.15}

input: Query: relative viability; subject: Clc1ccc(Nc2nnc(Cc3ccncc3)c3ccccc23)cc1 [Vatalanib] + CC(=O)c1c(C)c2cnc(Nc3ccc(N4CCNCC4)cn3)nc2n(C2CCCC2)c1=O [Palbociclib] (partner 0.5 µM)
output: 0.796

input: Would you kindly share the measured relative viability for Clc1ccc(Nc2nnc(Cc3ccncc3)c3ccccc23)cc1 [Vatalanib] + Cc1cc(Nc2cc(N3CCN(C)CC3)nc(Sc3ccc(NC(=O)C4CC4)cc3)n2)n[nH]1 [Tozasertib] (partner 0.1 µM) ?
output: 0.173

input: Data request, read-out relative viability, for COc1cc(N2CCC(C(N)=O)CC2)ccc1Nc1nc(N)c(Cl)c(Nc2ccccc2S(=O)(=O)C(C)C)n1 [HG-5-88-01] + COc1cc2c(Oc3ccc(NC(=O)C4(C(=O)Nc5ccc(F)cc5)CC4)cc3F)ccnc2cc1OCCCN1CCOCC1 [Foretinib] (partner 0.25 µM)
output: 0.784

input: What does the data say about its relative viability? Entry: COc1cc(N2CCC(C(N)=O)CC2)ccc1Nc1nc(N)c(Cl)c(Nc2ccccc2S(=O)(=O)C(C)C)n1 [HG-5-88-01] + CS(=O)(=O)CCNCc1ccc(-c2ccc3ncnc(Nc4ccc(OCc5cccc(F)c5)c(Cl)c4)c3c2)o1 [Lapatinib] (partner 2 µM)
output: 0.792
